# Experiment notes: Lipophilicity, logP of compound by RP-HPLC analysis
# Format: physicochemical
Field: logP. Provide a value for each of the molecules that follow.
One number for each entry.

Recorded logP, per entry:
query: Supply logP value. Item: CCCCCCCCc1ccc(OCC(=O)Cn2nnc(CCC(=O)O)n2)cc1
result: 5.5

query: Supply logP value. Item: O=C(O)CCc1nnn(CC(=O)COc2ccc(Oc3ccccc3)cc2)n1
result: 2.2

query: Supply logP value. Item: CCCCc1ccc(OCC(=O)Cn2nnc(CCC(=O)O)n2)cc1
result: 3

query: Supply logP value. Item: CC(C)Cc1ccc(C(C)C(=O)O)cc1 (configuration not stated)
result: 3.2

query: Supply logP value. Item: CCCCCCOc1ccc(OCC(=O)Cn2nnc(CCC(=O)O)n2)cc1
result: 3.7

query: Supply logP value. Item: CC(C)CCCOc1ccc(OCC(=O)Cn2nnc(CCC(=O)O)n2)cc1
result: 3.6

Here is the next item to consider.
query: Supply logP value. Item: CCCCCCc1ccc(OCC(=O)Cn2nnc(CCC(=O)O)n2)cc1
result: 4.2
